Numbers sourced from PubChem BioAssay AID1259407.

# System: CCRIS mutagenicity, Ames/micronucleus/aberration tests
# ASSAY REMARKS: CCRIS mutagenicity studies
# TEST CONTEXT: Test System: AMES SALMONELLA TYPHIMURIUM; Strain/Indicator: TA98; Metabolic Activation: RAT, LIVER, S-9, AROCLOR; Method: STANDARD PLATE
Calls of active or inactive are those of the source. No rule for the calls is given here.
Pick one: class 1 = active, class 0 = inactive

{"SMILES TEXT": "C=C(C)[C@H]1CC=C(C)CC1", "CLASS NAME": "class 0"}
{"SMILES TEXT": "CCCCNC(=O)n1c(NC(=O)OC)nc2ccccc21", "CLASS NAME": "class 0"}

Task: Recorded call for CCc1ccc(/C=C/c2ccc([N+](=O)[O-])cc2)cc1 ?
Result: class 1

Task: Recorded call for ClCC(CCl)(CCl)CCl ?
Result: class 0

Task: Recorded call for O=[N+]([O-])c1ccc2c(c1)Oc1cc(Cl)c(Cl)cc1O2 ?
Result: class 1

Task: Recorded call for Cc1nc2c(ccc3ccc4ccc(O)cc4c32)[nH]1 ?
Result: class 1

Task: Recorded call for CCCCCCCCC=O ?
Result: class 0
